Ref: the supplement of paper PMC10567573

Reported protein stability index values are given for each entry in this list.
B1: RIPK4 (parent)
chain: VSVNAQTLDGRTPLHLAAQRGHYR

- Variants of: B1
- testDetails: protein stability index of a GFP-peptide fusion (GPS, HEK-293T) (PSI 1-6); higher = more stable;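 also: lentivirally expressed fusions sorted by FACS into six bins by GFP to DsRed ratio, PSI derived from sequencing read proportions per bin multiplied by bin number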
- appliedConditions: c terminus: a fixed tail appended
// no unit, no text: just the number

mutationCode | protein stability index
R11T | 2.71
A5K | 3.69
T12M | 3.19

In the following, a different variant is considered.
Bench note: what protein stability index did `N4Y` show?
3.12
